System: EKVX NSCLC
Test: NCI tumour cell line growth inhibition, 48 h; in the data active means GI50 below about 0.43 µM; inactive means the rest
Hi! Could you answer with just one of these? yes (1) (active), no (0) (inactive)

C=C(C)[C@@H]1CC[C@]2(CN)CC[C@]3(C)[C@H](CC[C@@H]4[C@@]5(C)CCC(N)[C@@](C)(CO)[C@@H]5CC[C@]43C)[C@@H]12 (stereo partly drawn); no (0)
CCCCCC(=C/c1ccccc1)/C=N/N=C(N)N; no (0)
C[C@@]1(O)CCC[C@H]1n1c(=O)c(C(F)F)cc2cnc(NC3CCN(S(C)(=O)=O)CC3)nc21; no (0)

Ask | For COc1c(N2CCN(CN3C(=O)C(=O)c4ccccc43)C(C)C2)c(F)cc2c(=O)c(C(=O)O)cn(C3CC3)c12 (stereo not drawn) , which call appears in the assay record?
Reply | no (0)

Ask | Status in this test for COc1ccccc1N1CCN(CCCOc2ccc(C(=O)/C=C3/C(=O)Nc4ccccc43)cc2)CC1 ?
Reply | no (0)

Ask | Could you check what this test reported for CCC1(N)C(=O)OCc2c1cc1n(c2=O)Cc2cc3ccccc3nc2-1 (stereo not drawn) ?
Reply | no (0)

Ask | How was CSC1SCC2C(=O)N(C)C(C(C)C)C(=O)OCC(NC(=O)c3cnc4ccccc4n3)C(=O)NC(C)C(=O)N(C)C1C(=O)N(C)C(C(C)C)C(=O)OCC(NC(=O)c1cnc3ccccc3n1)C(=O)NC(C)C(=O)N2C (stereo not drawn) classified in this test?
Reply | yes (1)

Ask | Recorded call for COc1ccc(-c2cc(-c3ccc(Cl)cc3)nc(SCCCCCCC(=O)NO)n2)cc1 ?
Reply | no (0)
